- TARGET_OR_SYSTEM: T1, monkey SEMA4D, full length, on CHO-K1 cells (CHO-K1 cSEMA4D) (monkey)
- T1 construct: whole, on cells; also called monkey SEMA4D recombinant cells
- ASSAY_TEXT: FACS, CHO-K1 cSEMA4D cells; Ab 0.000853 nM

BINDER	MFI
31G10C5 (antibody, V domains shown, Mouse monoclonal antibody purified from hybridoma supernatant on protein A) VH: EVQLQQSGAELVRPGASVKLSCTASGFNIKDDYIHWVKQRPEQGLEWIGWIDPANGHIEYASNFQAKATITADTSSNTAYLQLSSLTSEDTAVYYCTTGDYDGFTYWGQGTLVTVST VL: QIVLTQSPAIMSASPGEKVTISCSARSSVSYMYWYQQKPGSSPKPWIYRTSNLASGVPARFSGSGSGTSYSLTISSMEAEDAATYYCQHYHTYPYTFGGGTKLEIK	61.5
32C8F10 (antibody, V domains shown, Mouse monoclonal antibody purified from hybridoma supernatant on protein A) VH: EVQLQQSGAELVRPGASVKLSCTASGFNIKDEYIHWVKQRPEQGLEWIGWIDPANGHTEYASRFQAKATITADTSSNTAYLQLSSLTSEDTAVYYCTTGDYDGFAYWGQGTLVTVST VL: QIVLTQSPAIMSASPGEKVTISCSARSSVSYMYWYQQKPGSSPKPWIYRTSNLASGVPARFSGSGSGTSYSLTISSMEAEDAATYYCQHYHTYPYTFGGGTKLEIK	49.7
37F11F9 (antibody, V domains shown, Mouse monoclonal antibody purified from hybridoma supernatant on protein A) VH: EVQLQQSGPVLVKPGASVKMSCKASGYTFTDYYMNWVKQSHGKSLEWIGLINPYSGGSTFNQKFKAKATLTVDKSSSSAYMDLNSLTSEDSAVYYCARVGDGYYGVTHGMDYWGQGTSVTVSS VL: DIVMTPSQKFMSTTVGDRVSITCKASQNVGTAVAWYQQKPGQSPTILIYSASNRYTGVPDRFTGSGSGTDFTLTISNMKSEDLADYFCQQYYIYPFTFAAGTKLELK	29.5
31C11G2 (antibody, V domains shown, Mouse monoclonal antibody purified from hybridoma supernatant on protein A) VH: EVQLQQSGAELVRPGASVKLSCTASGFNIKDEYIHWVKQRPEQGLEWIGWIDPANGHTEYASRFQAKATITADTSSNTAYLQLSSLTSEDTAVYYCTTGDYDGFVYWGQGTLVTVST VL: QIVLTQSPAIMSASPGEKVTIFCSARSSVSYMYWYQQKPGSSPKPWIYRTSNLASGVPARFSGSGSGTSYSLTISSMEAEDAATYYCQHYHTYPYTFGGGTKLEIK	81.4
